system: Rattus norvegicus; experiment: Antiinflammatory activity in albino rat assessed as inhibition of carrageenan-induced paw edema at 50 mg/kg, po administered 1 hr prior to carrageenan-challenge measured after 3 hrs; type: functional
Catalogue of compounds with associated inhibition in vivo at 50 mg/kg
Express the result in % but write the number alone.

N#Cc1c(Nc2ccc(O)cc2)nc(SCC(=O)Nn2c(COc3ccc(Cl)cc3Cl)nc3ccccc3c2=O)nc1-c1ccc(Cl)cc1
61.4
N#Cc1c(Nc2ccccc2)nc(SCC(=O)Nn2c(COc3ccc(Cl)cc3Cl)nc3ccccc3c2=O)nc1-c1ccc(O)cc1
77.2
Cn1c(SCC(=O)Nn2c(COc3ccc(Cl)cc3Cl)nc3ccccc3c2=O)nc(-c2ccc(O)cc2)c(C#N)c1=O
70.4
O=C([O-])Cc1ccccc1Nc1c(Cl)cccc1Cl.[Na+] [DICLOFENAC SODIUM]
87.3
N#Cc1c(-c2ccccc2)nc(SCC(=O)Nn2c(COc3ccc(Cl)cc3Cl)nc3ccccc3c2=O)[nH]c1=O
68.4

Now, please, on to the next compound.
Sample N#Cc1c(Nc2ccc(O)cc2)nc(SCC(=O)Nn2c(COc3ccc(Cl)cc3Cl)nc3ccccc3c2=O)nc1-c1ccc(O)cc1 — what was its inhibition in vivo at 50 mg/kg?
56.1

----------
system: Rattus norvegicus; experiment: Antiinflammatory activity in albino rat assessed as inhibition of carrageenan-induced paw edema at 100 mg/kg, po administered 1 hr prior to carrageenan-challenge measured after 3 hrs; format: functional
Property name: inhibition in vivo at 100 mg/kg (%)
Express the result in % but write the number alone.

O=C([O-])Cc1ccccc1Nc1c(Cl)cccc1Cl.[Na+] [DICLOFENAC SODIUM]
91.2
O=C(CSc1nc(-c2ccc(O)cc2)c(C(=O)O)c(=O)[nH]1)Nn1c(COc2ccc(Cl)cc2Cl)nc2ccccc2c1=O
38.6
N#Cc1c(Nc2ccccc2)nc(SCC(=O)Nn2c(COc3ccc(Cl)cc3Cl)nc3ccccc3c2=O)nc1-c1ccc(Cl)cc1
56.1
N#Cc1c(Nc2ccc(Cl)cc2)nc(SCC(=O)Nn2c(COc3ccc(Cl)cc3Cl)nc3ccccc3c2=O)nc1-c1ccc(O)cc1
79
N#Cc1c(Cl)nc(SCC(=O)Nn2c(COc3ccc(Cl)cc3Cl)nc3ccccc3c2=O)nc1-c1ccc(Cl)cc1
68.4

Sample N#Cc1c(Nc2ccc(O)cc2)nc(SCC(=O)Nn2c(COc3ccc(Cl)cc3Cl)nc3ccccc3c2=O)nc1-c1ccccc1 — what was its inhibition in vivo at 100 mg/kg?
59.6

----------
Catalogue of molecules with associated inhibition in vivo at 100 mg/kg
test system: Rattus norvegicus; test: Antiinflammatory activity in albino rat assessed as inhibition of carrageenan-induced paw edema at 100 mg/kg, po administered 1 hr prior to carrageenan-challenge measured after 0.5 hrs; type: functional
Express the result in % but write the number alone.

Cn1c(SCC(=O)Nn2c(COc3ccc(Cl)cc3Cl)nc3ccccc3c2=O)nc(-c2ccc(Cl)cc2)c(C#N)c1=O
80.8
N#Cc1c(Cl)nc(SCC(=O)Nn2c(COc3ccc(Cl)cc3Cl)nc3ccccc3c2=O)nc1-c1ccccc1
53.9
Cn1c(SCC(=O)Nn2c(COc3ccc(Cl)cc3Cl)nc3ccccc3c2=O)nc(-c2ccc(O)cc2)c(C#N)c1=O
76.9

Sample N#Cc1c(-c2ccc(Cl)cc2)nc(SCC(=O)Nn2c(COc3ccc(Cl)cc3Cl)nc3ccccc3c2=O)[nH]c1=O — what was its inhibition in vivo at 100 mg/kg?
61.5

Sample N#Cc1c(-c2ccc(Cl)cc2)nc(SCC(=O)Nn2c(COc3ccc(Cl)cc3Cl)nc3ccccc3c2=O)n(Cc2ccccc2)c1=O — what was its inhibition in vivo at 100 mg/kg?
61.5

----------
test system: Rattus norvegicus; assay: Antiinflammatory activity in albino rat assessed as inhibition of carrageenan-induced paw edema at 100 mg/kg, po administered 1 hr prior to carrageenan-challenge measured after 1 hr; type: functional
Catalogue of compounds with associated inhibition in vivo at 100 mg/kg
Express the result in % but write the number alone.

Below, each entry is followed by its recorded inhibition in vivo at 100 mg/kg result.
N#Cc1c(-c2ccc(Cl)cc2)nc(SCC(=O)Nn2c(COc3ccc(Cl)cc3Cl)nc3ccccc3c2=O)[nH]c1=O
63.6
O=C(CSc1nc(-c2ccc(O)cc2)c(C(=O)O)c(=O)[nH]1)Nn1c(COc2ccc(Cl)cc2Cl)nc2ccccc2c1=O
36.4
N#Cc1c(Nc2ccc(Cl)cc2)nc(SCC(=O)Nn2c(COc3ccc(Cl)cc3Cl)nc3ccccc3c2=O)nc1-c1ccccc1
54.5
N#Cc1c(Nc2ccc(O)cc2)nc(SCC(=O)Nn2c(COc3ccc(Cl)cc3Cl)nc3ccccc3c2=O)nc1-c1ccc(O)cc1
86.4
O=C(CSc1nc(-c2ccc(Cl)cc2)c(C(=O)O)c(=O)[nH]1)Nn1c(COc2ccc(Cl)cc2Cl)nc2ccccc2c1=O
58.2

Sample N#Cc1c(-c2ccc(Cl)cc2)nc(SCC(=O)Nn2c(COc3ccc(Cl)cc3Cl)nc3ccccc3c2=O)n(Cc2ccccc2)c1=O — what was its inhibition in vivo at 100 mg/kg?
72.7

Sample N#Cc1c(Nc2ccc(O)cc2)nc(SCC(=O)Nn2c(COc3ccc(Cl)cc3Cl)nc3ccccc3c2=O)nc1-c1ccc(Cl)cc1 — what was its inhibition in vivo at 100 mg/kg?
90.9

Sample N#Cc1c(-c2ccc(O)cc2)nc(SCC(=O)Nn2c(COc3ccc(Cl)cc3Cl)nc3ccccc3c2=O)n(Cc2ccccc2)c1=O — what was its inhibition in vivo at 100 mg/kg?
54.5

Sample N#Cc1c(Nc2ccccc2)nc(SCC(=O)Nn2c(COc3ccc(Cl)cc3Cl)nc3ccccc3c2=O)nc1-c1ccccc1 — what was its inhibition in vivo at 100 mg/kg?
77.3

Sample N#Cc1c(Nc2ccccc2)nc(SCC(=O)Nn2c(COc3ccc(Cl)cc3Cl)nc3ccccc3c2=O)nc1-c1ccc(Cl)cc1 — what was its inhibition in vivo at 100 mg/kg?
43.6

Sample O=C(CSc1nc(-c2ccccc2)c(C(=O)O)c(=O)[nH]1)Nn1c(COc2ccc(Cl)cc2Cl)nc2ccccc2c1=O — what was its inhibition in vivo at 100 mg/kg?
69.1

Sample N#Cc1c(Nc2ccc(Cl)cc2)nc(SCC(=O)Nn2c(COc3ccc(Cl)cc3Cl)nc3ccccc3c2=O)nc1-c1ccc(O)cc1 — what was its inhibition in vivo at 100 mg/kg?
72.7

Sample Cn1c(SCC(=O)Nn2c(COc3ccc(Cl)cc3Cl)nc3ccccc3c2=O)nc(-c2ccccc2)c(C#N)c1=O — what was its inhibition in vivo at 100 mg/kg?
54.5

----------
system: Rattus norvegicus; experiment: Antiinflammatory activity in albino rat assessed as inhibition of carrageenan-induced paw edema at 100 mg/kg, po administered 1 hr prior to carrageenan-challenge measured after 1 hr; type: functional
Catalogue of compounds with associated inhibition in vivo at 100 mg/kg
Express the result in % but write the number alone.

Sample N#Cc1c(-c2ccc(O)cc2)nc(SCC(=O)Nn2c(COc3ccc(Cl)cc3Cl)nc3ccccc3c2=O)[nH]c1=O — what was its inhibition in vivo at 100 mg/kg?
63.6

Sample N#Cc1c(Cl)nc(SCC(=O)Nn2c(COc3ccc(Cl)cc3Cl)nc3ccccc3c2=O)nc1-c1ccc(Cl)cc1 — what was its inhibition in vivo at 100 mg/kg?
63.6

Sample N#Cc1c(Nc2ccccc2)nc(SCC(=O)Nn2c(COc3ccc(Cl)cc3Cl)nc3ccccc3c2=O)nc1-c1ccc(O)cc1 — what was its inhibition in vivo at 100 mg/kg?
90.9

Sample N#Cc1c(Nc2ccc(Cl)cc2)nc(SCC(=O)Nn2c(COc3ccc(Cl)cc3Cl)nc3ccccc3c2=O)nc1-c1ccc(Cl)cc1 — what was its inhibition in vivo at 100 mg/kg?
54.5

Sample Cn1c(SCC(=O)Nn2c(COc3ccc(Cl)cc3Cl)nc3ccccc3c2=O)nc(-c2ccc(O)cc2)c(C#N)c1=O — what was its inhibition in vivo at 100 mg/kg?
80

Sample N#Cc1c(Nc2ccc(O)cc2)nc(SCC(=O)Nn2c(COc3ccc(Cl)cc3Cl)nc3ccccc3c2=O)nc1-c1ccccc1 — what was its inhibition in vivo at 100 mg/kg?
72.7

Sample N#Cc1c(-c2ccccc2)nc(SCC(=O)Nn2c(COc3ccc(Cl)cc3Cl)nc3ccccc3c2=O)[nH]c1=O — what was its inhibition in vivo at 100 mg/kg?
81.8

----------
species: Ovis aries; assay: Selectivity ratio of IC50 for ovine COX2 to ovine COX1
Catalogue of compounds with associated Ratio IC50
Please reply with the value in numeric form only.

Below, each entry is followed by its recorded Ratio IC50 result.
Cc1ccc(-c2cc(C(F)(F)F)nn2-c2ccc(S(N)(=O)=O)cc2)cc1
0.02
N#Cc1c(Nc2ccc(O)cc2)nc(SCC(=O)Nn2c(COc3ccc(Cl)cc3Cl)nc3ccccc3c2=O)nc1-c1ccc(O)cc1
7.3
N#Cc1c(Nc2ccc(O)cc2)nc(SCC(=O)Nn2c(COc3ccc(Cl)cc3Cl)nc3ccccc3c2=O)nc1-c1ccc(Cl)cc1
0.4

Sample N#Cc1c(-c2ccccc2)nc(SCC(=O)Nn2c(COc3ccc(Cl)cc3Cl)nc3ccccc3c2=O)[nH]c1=O — what was its Ratio IC50?
20.6

Sample N#Cc1c(Nc2ccccc2)nc(SCC(=O)Nn2c(COc3ccc(Cl)cc3Cl)nc3ccccc3c2=O)nc1-c1ccc(O)cc1 — what was its Ratio IC50?
0.44

Sample Cn1c(SCC(=O)Nn2c(COc3ccc(Cl)cc3Cl)nc3ccccc3c2=O)nc(-c2ccc(O)cc2)c(C#N)c1=O — what was its Ratio IC50?
0.62
